System: A549
Test: cells
Details: Homo sapiens, A549, 24 h
Description: Antiproliferative activity against human A549 cells assessed as inhibition of cell growth incubated for 24 hrs by MTT assay
measuredEndpoint: pIC50
Please keep in mind that pIC50 is minus log10 of the molar concentration; only the number is needed.

QUERY: Bench note: what pIC50 did Cc1cccc(C)c1N1C(=O)c2ccc(C(=O)OCc3cn(-c4ccc(S(N)(=O)=O)cc4)nn3)cc2C1=O show?
RESULT: 3.60

QUERY: Bench note: what pIC50 did N#Cc1ccc(N2C(=O)c3ccc(C(=O)OCc4cn(-c5ccc(S(N)(=O)=O)cc5)nn4)cc3C2=O)cc1 show?
RESULT: 3.57

QUERY: Bench note: what pIC50 did CCCCCCCCN1C(=O)c2ccc(C(=O)OCc3cn(-c4ccc(S(N)(=O)=O)cc4)nn3)cc2C1=O show?
RESULT: 3.63

QUERY: Bench note: what pIC50 did NS(=O)(=O)c1ccc(-n2cc(COC(=O)c3ccc4c(c3)C(=O)N(Cc3ccc5c(c3)OCO5)C4=O)nn2)cc1 show?
RESULT: 3.89

QUERY: Bench note: what pIC50 did NS(=O)(=O)c1ccc(-n2cc(COC(=O)c3ccc4c(c3)C(=O)N(c3ccccc3)C4=O)nn2)cc1 show?
RESULT: 3.52

* * *

Hi there, I'd appreciate the recorded IC50 for every entry that follows.
Tested on: A549
Assay: cells
Details: Homo sapiens, A549, 24 h
Report as a plain number; the unit µM is understood.

QUERY: Bench note: what IC50 did NS(=O)(=O)c1ccc(-n2cc(COC(=O)c3ccc4c(c3)C(=O)N(c3cccc5ccccc35)C4=O)nn2)cc1 show?
RESULT: 278

QUERY: Bench note: what IC50 did NS(=O)(=O)c1ccc(-n2cc(COC(=O)c3ccc4c(c3)C(=O)N(c3ccccc3Cl)C4=O)nn2)cc1 show?
RESULT: 290

QUERY: Bench note: what IC50 did NS(=O)(=O)c1ccc(-n2cc(COC(=O)c3ccc4c(c3)C(=O)N(c3ccccc3I)C4=O)nn2)cc1 show?
RESULT: 258

QUERY: Bench note: what IC50 did CCCCN1C(=O)c2ccc(C(=O)OCc3cn(-c4ccc(S(N)(=O)=O)cc4)nn3)cc2C1=O show?
RESULT: 199

* * *

Hi there, I'd appreciate the recorded pIC50 for every entry that follows.
System: A549
Experiment: cells
Details: Homo sapiens, A549, 24 h
Please keep in mind that pIC50 is minus log10 of the molar concentration; only the number is needed.

QUERY: Bench note: what pIC50 did NS(=O)(=O)c1ccc(-n2cc(COC(=O)c3ccc4c(c3)C(=O)N(c3ccc(Cl)cc3)C4=O)nn2)cc1 show?
RESULT: 3.45

QUERY: Bench note: what pIC50 did COc1cccc2c1C(=O)c1c(O)c3c(c(O)c1C2=O)C[C@@](O)(C(=O)CO)C[C@@H]3O[C@H]1C[C@H](N)[C@H](O)[C@H](C)O1 [DOXORUBICIN] show?
RESULT: 4.97

QUERY: Bench note: what pIC50 did NS(=O)(=O)c1ccc(-n2cc(COC(=O)c3ccc4c(c3)C(=O)N(c3cccc(F)c3)C4=O)nn2)cc1 show?
RESULT: 3.64

QUERY: Bench note: what pIC50 did CCCCCCN1C(=O)c2ccc(C(=O)OCc3cn(-c4ccc(S(N)(=O)=O)cc4)nn3)cc2C1=O show?
RESULT: 3.79
